Measured values drawn from ChEMBL document CHEMBL4007456 for this set.

- System: Stenotrophomonas maltophilia
- method: Antibacterial activity against gram-negative Stenotrophomonas maltophilia SM256 by CLSI method
- Format: functional
outcomeMeasure: MIC (µg/mL)
Response body: numeric value in µg/mL, unit text excluded.

# value lookup — system Stenotrophomonas maltophilia, readout MIC, item CC(C)N1CCC[C@H]1c1cc(O)c2c(c1C(F)(F)F)C[C@H]1C[C@H]3[C@H](N(C)C)C(O)=C(C(N)=O)C(=O)[C@@]3(O)C(O)=C1C2=O
4

// next record CN1CCCC1c1cc(O)c2c(c1Cl)C[C@H]1C[C@H]3[C@H](N(C)C)C(O)=C(C(N)=O)C(=O)[C@@]3(O)C(O)=C1C2=O (stereo not given in full)
0.125

// next record CN(C)[C@@H]1C(O)=C(C(N)=O)C(=O)[C@@]2(O)C(O)=C3C(=O)c4c(O)cc(C5CCCN5)c(OC(F)(F)F)c4C[C@H]3C[C@@H]12 (stereo not given in full)
2

// next record CN(C)c1cc(NC(=O)CNC(C)(C)C)c(O)c2c1C[C@H]1C[C@H]3[C@H](N(C)C)C(O)=C(C(N)=O)C(=O)[C@@]3(O)C(O)=C1C2=O
2

// next record CCN1CCC[C@H]1c1cc(O)c2c(c1C(F)(F)F)C[C@H]1C[C@H]3[C@H](N(C)C)C(O)=C(C(N)=O)C(=O)[C@@]3(O)C(O)=C1C2=O
1

// next record CN1CCCCCC1c1cc(O)c2c(c1Cl)C[C@H]1C[C@H]3[C@H](N(C)C)C(O)=C(C(N)=O)C(=O)[C@@]3(O)C(O)=C1C2=O (stereo not given in full)
0.5

// next record CN(C)[C@@H]1C(O)=C(C(N)=O)C(=O)[C@@]2(O)C(O)=C3C(=O)c4c(O)cc(-c5cccnc5)c(Cl)c4C[C@H]3C[C@@H]12
2

// next record CC1CCN(C)C1c1cc(O)c2c(c1C(F)(F)F)C[C@H]1C[C@H]3[C@H](N(C)C)C(O)=C(C(N)=O)C(=O)[C@@]3(O)C(O)=C1C2=O (stereo not given in full)
1

// next record CN(C)[C@@H]1C(O)=C(C(N)=O)C(=O)[C@@]2(O)C(O)=C3C(=O)c4c(O)cc(-c5ccncc5)c(Cl)c4C[C@H]3C[C@@H]12
2
